Tested on: 817829-284-R-J1-PDC complex spheroids, viability;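 also: spheroids exposed to the agents for seven days before readout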
measurement.protocol: Anticancer human tumor 817829-284-R-J1-PDC patient-derived colon adenocarcinoma cell line growth inhibition [CLK]
test.settings: second compound 1 µM; first compound 1 µM; active compounds read low
Assign labels as follows, please: yes (1) for viability, T/C below 0.1%; no (0) for viability, T/C equal to or exceeding 0.1%.

Lab log: compare recorded viability, T/C with 0.1%; is it strictly lower for CC(Nc1ccc2c(c1)OCCn1cc(N3C(=O)OCC3C(F)F)nc1-2)C(N)=O (stereo not given) + CN1CCN(c2cc(C(=O)Nc3cc4cc(-c5cnn(C)c5)ccc4cn3)ccn2)CC1 ?
yes (1)

Does the reported viability, T/C of the following molecule sit strictly below 0.1%? C=C(F)C(=O)N1CCN(c2nc(OCC3CCCN3C)nc3c2CCN(c2cccc4cccc(Cl)c24)C3)CC1CC#N (stereo not given) + CN1CCN(c2cc(C(=O)Nc3cc4cc(-c5cnn(C)c5)ccc4cn3)ccn2)CC1
no (0)

# TODO verify viability, T/C < 0.1% strictly for this molecule: COc1c(OCCCN2CCOCC2)ccc2c3n(c(=NC(=O)c4cnc(N)nc4)nc12)CCN3 + CNC(=O)c1ccc(Nc2nc(OC3CCCC3)c3c(-c4ccc5nc(C)oc5c4)c[nH]c3n2)c(OC)c1
no (0)

Threshold test, viability, T/C < 0.1%: CCCS(=O)(=O)Nc1ccc(F)c(C(=O)c2c[nH]c3ncc(-c4ccc(Cl)cc4)cc23)c1F + CNC(=O)c1ccc(Nc2nc(OC3CCCC3)c3c(-c4ccc5nc(C)oc5c4)c[nH]c3n2)c(OC)c1
no (0)

viability, T/C under 0.1%? Item: C=CC(=O)N1CCN(c2nc(=O)n(-c3c(C)ccnc3C(C)C)c3nc(-c4c(O)cccc4F)c(F)cc23)C(C)C1 (stereo not given) + CN1CCN(c2cc(C(=O)Nc3cc4cc(-c5cnn(C)c5)ccc4cn3)ccn2)CC1
no (0)
